The measured values listed here are drawn from the supplement of paper PMC10646978.

- Test system: RAW-Dual (murine macrophage reporter line)
- MEASUREMENT NOTES: NF-kB reporter (SEAP) activity fold change vs agonist alone; higher = enhanced NF-kB activity
- CONDITION: modulator concentration 10 µM; agonist: MPLA […]
Label rule, in plain words: NF-kB reporter of 0.9 and up is 1.0, under 0.9 is 0.0.

Ask | # check: NF-kB reporter of `CC(=O)Oc1ccccc1C(=O)O` is greater than or equal to 0.9
Reply | 1.0

Ask | Textbook exercise: given the entry `CC(C)n1cnc(S(=O)(=O)N2CCC(S(=O)(=O)Cc3ccccc3)CC2)c1` , state whether its NF-kB reporter is greater than or equal to 0.9.
Reply | 1.0

Ask | Could you please find out whether Nc1ncn(C2OC(CO)C(O)C2O)c(=O)n1 (centres undefined) has NF-kB reporter that meets 0.9 or exceeds it?
Reply | 1.0

Ask | NF-kB reporter >= 0.9 for `CN(C)CCCN1c2ccccc2CCc2ccccc21.Cl` ?
Reply | 1.0

Ask | API: above_or_equal(metric=NF-kB reporter, cutoff=0.9) for item `CNCc1cc(-c2ccccc2F)n(S(=O)(=O)c2cccnc2)c1.O=C(O)/C=C/C(=O)O`
Reply | 1.0

Ask | Entry `O=C1CSC(=S)N1c1ccc(Cl)cc1` : is its NF-kB reporter no less than 0.9?
Reply | 0.0

Ask | Is NF-kB reporter at least 0.9? Consider `O=C(NN=Cc1sc2ccccc2c1Cl)c1ccncc1`
Reply | 1.0

Ask | Determine whether this compound has NF-kB reporter no lower than 0.9: `CN(C)CCCOc1nn(Cc2ccccc2)c2ccccc12.Cl`
Reply | 0.0

Ask | hey, is NF-kB reporter for this one >= 0.9? `O=C(O)c1cc(Nc2ccnc3cc(Cl)ccc23)ccc1O`
Reply | 1.0

Ask | Does `COC(=O)c1ccc(-n2nnnc2SCC(=O)Nc2ccc(C)c(C)c2)cc1` have a reported NF-kB reporter of at least 0.9?
Reply | 1.0

Ask | Entry `NC(=O)c1ncn([C@@H]2O[C@H](CO)[C@@H](O)[C@H]2O)n1` : is its NF-kB reporter no less than 0.9?
Reply | 0.0

Ask | NF-kB reporter >= 0.9 for `CC(=NNC(=O)CNc1ccccc1C)c1ccc(Br)cc1` ?
Reply | 1.0

Ask | Has `Cl.N=C(N)NCCC[C@H](N)C(=O)O` a recorded NF-kB reporter greater than or equal to 0.9?
Reply | 1.0

Ask | Hi team, for `CC(=O)c1ccc2c3c([nH]c2c1)CCCC3` , is the recorded NF-kB reporter at or above 0.9?
Reply | 1.0

Ask | Please tell me: is the compound CCOC(=O)C1=C(C)NC(C)=C(C(=O)OC)C1c1cccc([N+](=O)[O-])c1 (centres undefined) at or over 0.9 in terms of NF-kB reporter?
Reply | 0.0

Ask | Decide: is the reported value of NF-kB reporter for Cc1ccc2c(c1)C(=O)CC(O)(C(F)F)O2 (centres undefined) equal to or greater than 0.9?
Reply | 1.0

Ask | Does the reported NF-kB reporter for `CN(C)CCOC(=O)COc1ccc(Cl)cc1.Cl` fall at or above the 0.9 mark?
Reply | 1.0

Ask | Is it the case that `COc1ccc(S(=O)(=O)N(CC(=O)Nc2ccccc2F)c2ccc(C)cc2)cc1OC` has NF-kB reporter reaching or exceeding 0.9?
Reply | 1.0

Ask | Quick check: does OCC1OC(Oc2ccc(O)cc2)C(O)C(O)C1O (centres undefined) have NF-kB reporter greater than or equal to 0.9?
Reply | 1.0

Ask | Dear colleague, could you confirm whether CSc1ccccc1NC(=O)C1CCCN(c2ccc(-n3cncn3)nn2)C1 (centres undefined) has NF-kB reporter at or above 0.9?
Reply | 1.0

Ask | Is the recorded value of NF-kB reporter equal to or greater than 0.9 for this compound? O=C(NCCN1C(=O)c2ccccc2C1(O)c1ccc(Cl)cc1)Nc1ccccc1 (centres undefined)
Reply | 0.0

----------
- System: RAW-Dual (murine macrophage reporter line)
- MEASUREMENT NOTES: viability score (confluency relative to resting cells, overnight) (fraction); higher = more viable, active = viable (0.7 or more)
- CONDITION: modulator concentration 10 µM
Give measured viability score for each item. Keep answers brief.
I only need the number, thanks.

Ask | Entry `Cc1cc(OCC(=O)NC2CC(C)(C)NC(C)(C)C2)ccc1Br` needs its viability score filled in; supply it.
Reply | 0.976

Ask | Name the recorded viability score of the item `CC(=O)Nc1ccc(NC(=O)COc2ccc(Br)c(C)c2)cc1` in your answer.
Reply | 1.01

Ask | // Input: `CCCCc1c(C)nc(NN=C(C)c2cccc([N+](=O)[O-])c2)nc1O` . Output its viability score only.
Reply | 1.01

Ask | Please give measured viability score of the following entry: `Oc1c2c(nc3cc(-c4ccc(Br)cc4)nn13)CCS2`
Reply | 1.01

Ask | Report measured viability score; entry is COc1ccc(C(=O)CSc2nnc(NC(=O)C3CC(=O)N(c4cccc(OC)c4)C3)s2)cc1 (stereo not given)
Reply | 1.01

Ask | Name the recorded viability score of the compound listed here: `c1ccc(-n2nnnc2Sc2ncnc3sc4c(c23)CCCC4)cc1`
Reply | 0.994

Ask | Please look at this compound and report its viability score: `COc1cccc(-c2nnc(NC(=O)C3CC3)o2)c1`
Reply | 1

Ask | Determine its reported viability score: CCC(Oc1ccccc1)C(=O)Nc1cc([N+](=O)[O-])ccc1C (stereo not given)
Reply | 1

Ask | # return recorded viability score for entry `NC(=O)c1ncn([C@@H]2O[C@H](CO)[C@@H](O)[C@H]2O)n1`
Reply | 0.986

Ask | Identify measured viability score corresponding to `CNC(=O)[C@H](Cc1ccccc1)NC(=O)[C@H](CC(C)C)[C@H](CSc1cccs1)C(=O)NO`
Reply | 0.999

----------
- Test system: RAW-Dual (murine macrophage reporter line)
- MEASUREMENT NOTES: NF-kB reporter (SEAP) activity fold change vs agonist alone; higher = enhanced NF-kB activity
- CONDITION: modulator concentration 10 µM; agonist: CpG ODN 1826 0.5 ug/mL
Could you label it Yes if measured NF-kB reporter is 1 or higher, and No otherwise?

Ask | Identify whether the reported NF-kB reporter of the following compound is 1 or greater: `CC(=O)N1CCc2ccc(NC(=O)C3(c4ccccc4)CCOCC3)cc2C1`
Reply | No

Ask | Entry CN1CCN(C2CC(=O)N(c3ccc(N4CCOCC4)cc3)C2=O)CC1 (stereo not drawn) : is its NF-kB reporter no less than 1?
Reply | No

Ask | Check the entry `COC(=O)N[C@H](C(=O)N1CCC[C@H]1c1ncc(-c2ccc(-c3ccc(-c4cnc([C@@H]5CCCN5C(=O)[C@@H](NC(=O)OC)C(C)C)[nH]4)cc3)cc2)[nH]1)C(C)C` : does NF-kB reporter equal or exceed 1?
Reply | No

Ask | # bool: NF-kB reporter of `COc1ccc(-c2oc3ccc(OC)cc3c2C(=O)Nc2ccccc2Cl)cc1` >= 1
Reply | No

Ask | Kindly determine if NF-kB reporter recorded for `O=C(CC1(Cc2ccc(I)cc2)C(=O)c2ccccc2C1=O)c1ccccc1` is above or exactly 1.
Reply | No

Ask | Threshold query (NF-kB reporter >= 1) on CCCS(=O)c1ccc2nc(NC(=O)OC)[nH]c2c1 (stereo not drawn)
Reply | Yes

Ask | Hi, just wondering whether `Br.COc1ccc2c3c1O[C@H]1C[C@@H](O)C=C[C@@]31CCN(C)C2` shows NF-kB reporter of 1 or higher.
Reply | No

Ask | Could you please find out whether `COc1cccc(-c2csc(NC(=O)C3CC3)n2)c1` has NF-kB reporter that meets 1 or exceeds it?
Reply | Yes

Ask | Given the entry `CC(C)(C)C(=O)OCOP(=O)(COCCn1cnc2c(N)ncnc21)OCOC(=O)C(C)(C)C` , answer whether its NF-kB reporter meets or surpasses 1.
Reply | Yes

Ask | Is it the case that `Cc1ccc(C=Nc2ccc(-c3ccc(N=Cc4ccc(C)o4)c(C)c3)cc2C)o1` has NF-kB reporter reaching or exceeding 1?
Reply | No

Ask | Has `c1ccc(-c2cc3c4cccn4ccn3c2)cc1` a recorded NF-kB reporter greater than or equal to 1?
Reply | Yes

Ask | # bool: NF-kB reporter of O=C(O)C1C(c2ccccc2)C(C(=O)OCc2ccccc2)C1c1ccccc1 (stereo not drawn) >= 1
Reply | No

Ask | Record `Cc1cc(Nc2cc(CN3CCOCC3)c3nc(C)c(Cc4ccc(Cl)cc4F)n3n2)[nH]n1` ; criterion: NF-kB reporter no lower than 1. Met?
Reply | Yes

Ask | Test whether the compound `O=S(=O)(Oc1cccc2ccccc12)c1ccc(F)cc1` records NF-kB reporter of 1 or higher.
Reply | No

Ask | Has CC1=NN(C(=O)c2cccnc2)C(O)(c2ccccc2)C1 (stereo not drawn) a recorded NF-kB reporter greater than or equal to 1?
Reply | No

Ask | Tell me whether NF-kB reporter is at least 1 here: CCOC(=O)C1CCCN(S(=O)(=O)Cc2ccccc2)C1 (stereo not drawn)
Reply | No

Ask | hey, is NF-kB reporter for this one >= 1? COC(C(=O)NNC(=O)c1ccccc1Cl)c1ccccc1 (stereo not drawn)
Reply | Yes

Ask | Check this compound for NF-kB reporter at or above 1: O=C1c2cccc3c2[C@H](CCC3)CN1[C@@H]1CN2CCC1CC2 [Prestw-1783]
Reply | No

Ask | Does the reported NF-kB reporter for `Cc1ccc(C(=O)c2ccc(CC(=O)O)n2C)cc1` fall at or above the 1 mark?
Reply | No

Ask | Record `O=C(Nc1cc(N2CCN(Cc3ccccc3)CC2)ncn1)c1ccc2ccccc2n1` ; criterion: NF-kB reporter no lower than 1. Met?
Reply | No

Ask | # check: NF-kB reporter of `COCCCN1C(=O)C(=Cc2ccc(-c3ccc(Cl)cc3Cl)o2)SC1=S` is greater than or equal to 1
Reply | No

Ask | Determine whether measured NF-kB reporter meets or exceeds 1 for `COC(=O)c1ccccc1NC(=O)CCc1ccc(Oc2cc([N+](=O)[O-])cc([N+](=O)[O-])c2)cc1`
Reply | Yes

Ask | Could you tell me if the measured NF-kB reporter of CC1=C(C(=O)OCC2CCCO2)C(c2ccc([N+](=O)[O-])cc2)C2=C(CC(C)(C)CC2=O)N1 (stereo not drawn) reaches 1 or more?
Reply | Yes

Ask | Does the reported NF-kB reporter for CCN1CCCC1CNC(=O)c1cc(S(=O)(=O)CC)c(N)cc1OC (stereo not drawn) fall at or above the 1 mark?
Reply | Yes

Ask | hey, is NF-kB reporter for this one >= 1? CSCCC(NC(C)=O)C(=O)NC1CCN(c2nc(C)nc3c2CCCC3)CC1 (stereo not drawn)
Reply | No

Ask | Is the recorded value of NF-kB reporter equal to or greater than 1 for this compound? CC1CC(C)CN(S(=O)(=O)CCCOc2ccc3c(c2)OCO3)C1 (stereo not drawn)
Reply | Yes

Ask | // inclusive: NF-kB reporter at least 1? input: `O=C1C(O)=C(c2ccc([N+](=O)[O-])cc2)C(=O)c2ccccc21`
Reply | No

Ask | Hello, I need to know if `Cc1nc(N(C)C)nc(C)c1NC(=O)CC(C)C` has measured NF-kB reporter not below 1. Thanks!
Reply | No

Ask | Has COc1ccc(OC)c(CN2CCCC(O)C2)c1 (stereo not drawn) a recorded NF-kB reporter greater than or equal to 1?
Reply | Yes

Ask | Hello, I need to know if `Br.CCCc1cc(-c2nc(-c3ccc(C)cc3)cs2)ccn1` has measured NF-kB reporter not below 1. Thanks!
Reply | Yes

Ask | Has `Oc1c(Br)cc(C=NNc2nc3ccccc3s2)c(O)c1Br` a recorded NF-kB reporter greater than or equal to 1?
Reply | No

Ask | Does NF-kB reporter meet or surpass 1 for `Cc1c(C(=O)Nc2cccc3ccccc23)cccc1[N+](=O)[O-]` ?
Reply | No

Ask | Reported NF-kB reporter reaches at least 1 for `Clc1ccc(CN2CCN(c3ncnc4scc(-c5cccs5)c34)CC2)cc1` ?
Reply | No

Ask | Can Nc1ncnc2c1ncn2C1OC(COP(=O)(O)O)C(O)C1O (stereo not drawn) be said to have NF-kB reporter at or above 1?
Reply | Yes

Ask | Identify whether the reported NF-kB reporter of the following compound is 1 or greater: `NC(CO)(CO)CO`
Reply | Yes

Ask | Is reported NF-kB reporter greater than or equal to 1 here: `Cc1cc(-c2ccccc2)nnc1NCCN1CCOCC1.Cl.Cl`
Reply | Yes

Ask | Can `CC(=O)c1ccc(NC(=O)CSc2ccc(-c3ccc4c(c3)OCO4)nn2)cc1` be said to have NF-kB reporter at or above 1?
Reply | No
